Test system: FLC PDX cells
Test: Validation screen on cells dissociated from FLC PDX
Format: cell-based, human
Conditions: Homo sapiens, 72 h, read-out: EC50 against the PDX cells
property-measured: EC50

record-smiles | target-entity | endpoint-result
Cc1cc(Nc2cc(N3CCN(C)CC3)nc(/C=C/c3ccccc3)n2)n[nH]1 | FLC PDX cells | > 5 µM

###

Tested on: primary human hepatocytes (PHH)
Assay: Validation counter-screen on primary human hepatocytes
Details: up to 10 μM, 72 h
property-measured: Effect on PHH (dose response, normalized percent survival)

record-smiles | target-entity | endpoint-result
CN1CC[C@H](c2c(O)cc(O)c3c(=O)cc(-c4ccccc4Cl)oc23)[C@H](O)C1 | primary human hepatocytes (PHH) | toxic
CCc1cnn2c(NCc3ccc[n+]([O-])c3)cc(N3CCCC[C@H]3CCO)nc12 | primary human hepatocytes (PHH) | toxic

###

Tested on: FLC1 PDX cells
Test: Validation screen, 11-point dose response, 72 h, Cell Titer Glo
Type: cell-based, human
Details: read-out: EC50 FLC; FLC1, 72 h
pEC50: −log10 of the molar value.
Each entry below carries its recorded pEC50.

record-smiles | pEC50
CCCCCCOC(=O)[C@]1(O)C[C@@H]2O[C@@]1(C)n1c3ccccc3c3c4c(c5c6ccccc6n2c5c31)C(=O)NC4 | 5.79
Cc1[nH]nc2ccc(-c3cncc(OC[C@@H](N)Cc4ccccc4)c3)cc12 | 6.47
NC1(C(=O)N[C@@H](CCO)c2ccc(Cl)cc2)CCN(c2nc[nH]c3nccc2-3)CC1 | 5.53
O=S(=O)(NCCNC/C=C/c1ccc(Br)cc1)c1cccc2cnccc12 | 5.24

###

Test system: FLC1 cells
Assay: Role of ROS: survival with or without N-acetyl cysteine 10mM
Type: cell-based, human
Conditions: NAC 10mM, 72 h
property-measured: Effect of N-acetyl cysteine (NAC) on the toxicity of the drug

compound | endpoint-result
CC(C)c1c2cc(-c3ccnc(NC4CCC(NC5CCOCC5)CC4)n3)ccc2nn1C (centres unmarked) | mildly attenuated
Cn1cc(CNCC2CCN(c3ncc(C(=O)NO)cn3)CC2)c2ccccc21 | mildly attenuated
Cc1ccc(NC2=CC(=O)c3sc(C)nc3C2=O)cc1 | completely abrogated
Cc1[nH]c2ccccc2c1CCNCc1ccc(/C=C/C(=O)NO)cc1 | mildly attenuated
Cc1ccc(S(=O)(=O)c2ccc([N+](=O)[O-])o2)cc1 | completely abrogated
C=CC(=O)N1CC/C(=C\c2ccc(F)c([N+](=O)[O-])c2)C(=O)/C(=C/c2ccc(F)c([N+](=O)[O-])c2)C1 | completely abrogated

###

System: FLC2 PDX cells
Assay: Validation screen, 11-point dose response, 72 h, Cell Titer Glo
Format: cell-based, human
Conditions: Homo sapiens, 72 h, read-out: EC50 FLC
pEC50: −log10 of the molar value.

record-smiles | target-entity | pEC50
Cn1ncc(Cl)c1-c1cc(C(=O)N[C@H](CN)Cc2ccc(F)c(F)c2)oc1Cl | FLC2 PDX cells | 5.30
NC[C@@](O)(c1ccc(Cl)cc1)c1ccc(-c2cn[nH]c2)cc1 | FLC2 PDX cells | 5.21

These entries and their values trace back to paper PMC8734228.
